tgt: T1, p2S (p2 peptide biotinylated through its free cysteine) (human, also: biotinylated (maleimide PEO2-biotin) on one of the two Cys, which one not given here)
T1 construct: The peptide has two cysteines; also called b-p2S
T1 peptide: RPRYACCPGWKRT
assay_procedure: SPR (BIAcore-2000), IgG injected over immobilized p2S peptide;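 also: CM5 chip with immobilized peptide, IgG at 0.5–1000 nM in PBST, 3 min association and 3.5 min dissociation, reference-cell subtracted, rates fitted by 1:1 Langmuir model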
Where no end group is shown, it is not given here.
measured_quantity: Kd (nM)
I only need the number, in nM, no unit after it.

State, in one line, measured Kd of 4F11.v12 IgG (antibody, V domains shown, IgG; Kabat numbering) VH: EVQLVESGGGLVQPGGSLRLSCAASGHTFTTYGMSWVRQAPGKGLEWVGWINIHSGVPTYADDFKGRFTISRDNSKNTVYLQMNSLRAEDTAVYYCARLGSSAVDYWGQGTLVTVSS VL: DIQMTQSPSSLSASVGDRVTITCKASQSVDYDGDSYMSWYQQKPGKAPKLLIYGASNLESGVPSRFSGSGSGTDFTLTISSLQPEDFATYYCQQNNEDPYTFGQGTKVEIK 11.1

State, in one line, measured Kd of 4F11.v2 IgG (antibody, name in Kabat numbering, V domains shown, IgG; Kabat numbering) VH: EVQLVESGGGLVQPGGSLRLSCAASGHTFTTYGMSWVRQAPGKGLEWVGWINTHSGVPTYADDFKGRFTISRDNSKNTTYLQMNSLRAEDTAVYYCARLGSSAVDYWGQGTLVTVSS VL: DIQMTQSPSSLSASVGDRVTITCKASQSVDYDGDSYMSWYQQKPGKAPKLLIYGASNLESGVPSRFSGSGSGTDFTLTISSLQPEDFATYYCQQNNEDPYTFGQGTKVEIKR 54.4

State, in one line, measured Kd of 4F11.v10 IgG (antibody, V domains shown, IgG; Kabat numbering) VH: EVQLVESGGGLVQPGGSLRLSCAASGHTFTTYGMSWVRQAPGKGLEWVGWINTHSGVPTYADDFKGRFTISRDNSKNTVYLQMNSLRAEDTAVYYCARLGSYAVDYWGQGTLVTVSS VL: DIQMTQSPSSLSASVGDRVTITCKASQSVDYDGDSYMSWYQQKPGKAPKLLIYGASYLESGVPSRFSGSGSGTDFTLTISSLQPEDFATYYCQQNNEDPYTFGQGTKVEIK 27.4
